Record form. Attribute: pIC50. Fill in for each entry.
target: UniProtKB P11597; test: Scintillation Proximity Assay (SPA): First, low density lipoprotein (LDL) (Meridian) was biotinylated by incubating LDL with biotin for 1 hour on ice, after which it was dialyzed to remove free biotin. Then compounds at varying concentrations were incubated with 15 nM CETP (reagent production group, In Vitro Pharmacology, MRL Rahway) and 50 ug/ml of the biotinylated LDL in 50 mM HEPES, 150 mM NaCl, pH 7.4, for 1 hour at 37° C. The reaction was started by adding 3H-cholesterol ester high density lipoprotein (HDL) (American Radiochemicals Corp) at a concentration of ~0.6 nM. The reaction proceeded for 2 hours at 37° C., after which time it was quenched by the addition of 12% acetic acid. PVT streptavadin-coated scintillation proximity beads, which had been brought to room temperature, were then added at a concentration of 4 mg/ml. The assay was then mixed and counted after one half hour in a Microbeta plate reader.
Sequence (P11597 whole entry): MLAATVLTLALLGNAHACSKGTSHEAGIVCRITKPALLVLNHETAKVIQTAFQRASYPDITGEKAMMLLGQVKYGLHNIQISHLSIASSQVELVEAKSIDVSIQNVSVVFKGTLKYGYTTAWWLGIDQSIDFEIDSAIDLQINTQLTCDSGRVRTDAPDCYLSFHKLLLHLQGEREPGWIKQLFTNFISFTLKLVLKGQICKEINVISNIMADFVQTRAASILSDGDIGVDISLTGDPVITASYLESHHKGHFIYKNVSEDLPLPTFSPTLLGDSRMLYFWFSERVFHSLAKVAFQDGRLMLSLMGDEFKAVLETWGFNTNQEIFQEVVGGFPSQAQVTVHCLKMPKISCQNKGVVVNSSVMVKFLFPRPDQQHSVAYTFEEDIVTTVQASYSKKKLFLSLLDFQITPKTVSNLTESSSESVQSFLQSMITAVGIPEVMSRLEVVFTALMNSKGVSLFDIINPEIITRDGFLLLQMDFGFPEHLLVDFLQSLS
Remember, pIC50 is on a log scale: it is -log10 of the molar concentration.

Consider "COc1cccc(CN2C[C@@H](c3cccc(C(F)(F)F)c3)N(C[C@@H](O)C(F)(F)F)c3ccccc32)n1" . Its measured pIC50 is 6.20

Record "Cc1cc(CN2C[C@@H](c3cccc(C(F)(F)F)c3)N(C[C@@H](O)C(F)(F)F)c3ccccc32)cc(Cl)n1" . Reported pIC50: 7.17

The compound listed as "O[C@H](CN1c2ccccc2N(Cc2cccc(OC(F)(F)F)c2)C[C@H]1c1cccc2ccccc12)C(F)(F)F" shows pIC50 equal to 5.85

Please fill in: pIC50 reported for "COc1cccnc1CN1C[C@@H](c2cccc(C(F)(F)F)c2)N(C[C@@H](O)C(F)(F)F)c2ccccc21" = 6.68

Just so you know, measured pIC50 for "CCOc1cccc(CN2C[C@@H](c3cccc(C(F)(F)F)c3)N(C[C@@H](O)C(F)(F)F)c3ccccc32)n1" came out at 6.51

For "CC(C)Oc1cccc(CN2C[C@@H](c3cccc(C(F)(F)F)c3)N(C[C@@H](O)C(F)(F)F)c3ccccc32)n1" the compound record lists pIC50 as 6.12

These data points were gathered from ChEMBL document CHEMBL3886228.
